target_desc: Bile acid receptor (Mus musculus, UniProt Q60641)
Sequence (Q60641 whole entry): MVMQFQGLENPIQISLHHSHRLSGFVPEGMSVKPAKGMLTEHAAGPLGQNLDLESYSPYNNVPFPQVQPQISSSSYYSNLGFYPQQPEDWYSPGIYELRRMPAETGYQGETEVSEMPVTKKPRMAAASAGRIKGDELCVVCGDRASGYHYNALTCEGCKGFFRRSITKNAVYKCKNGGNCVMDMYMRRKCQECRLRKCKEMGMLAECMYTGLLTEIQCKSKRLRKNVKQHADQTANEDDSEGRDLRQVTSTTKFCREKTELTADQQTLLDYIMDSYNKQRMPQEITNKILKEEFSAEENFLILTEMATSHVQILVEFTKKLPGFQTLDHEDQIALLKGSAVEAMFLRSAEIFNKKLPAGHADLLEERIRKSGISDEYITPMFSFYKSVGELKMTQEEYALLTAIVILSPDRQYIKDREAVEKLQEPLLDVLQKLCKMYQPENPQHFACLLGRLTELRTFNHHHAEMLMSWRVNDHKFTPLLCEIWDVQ
experimental_protocol: Agonist activity at mouse chimeric FXR assessed as receptor transactivation by luciferase transcriptional reporter gene assay
property_name: EC50 (µM)

[[record]]
item_smiles = "Cc1cc(OCc2c(-c3c(Cl)c[n+]([O-])cc3Cl)noc2C(C)C)ccc1-c1ccc2c(C(=O)O)cn(C)c2c1"
target_desc = "Bile acid receptor (Mus musculus, UniProt Q60641)"
measurement = 0.2


P. Cc1cc(OCc2c(-c3[nH]c(=O)ccc3Cl)noc2C(C)C)ccc1-c1ccc2c(C(=O)O)cn(C)c2c1
Q. Cc1cc(OCc2c(-c3c(Cl)cn(C)c(=O)c3Cl)noc2C(C)C)ccc1-c1ccc2c(C(=O)O)cn(C)c2c1
Lowest EC50? choose P or Q Please indicate the selected item by its label.
Q
(Q: 11 µM, P: 18 µM)

* * *

target_desc: Bile acid receptor (Homo sapiens) (UniProt Q96RI1)
experimental_protocol: Agonist activity at chimeric FXR assessed as receptor transactivation by luciferase transcriptional reporter gene assay relative to GW-4064
Type: functional
Parameters: concentration or dose not given beside the values
property_name: Activity (%)

In the examples that follow, each entry is paired with its recorded Activity.
[[record]]
item_smiles = "Cc1cc(OCc2c(-c3cc[nH]c(=O)c3Cl)noc2C(C)C)ccc1-c1ccc2c(C(=O)O)cn(C)c2c1"
property_name = "Activity"
measurement_units = "%"
measurement = 58.5

[[record]]
item_smiles = "Cc1cc(OCc2c(-c3c(Cl)cncc3Cl)noc2C(C)C)ccc1-c1ccc2c(C(=O)O)cn(C)c2c1"
property_name = "Activity"
measurement_units = "%"
measurement = 38

[[record]]
item_smiles = "CC(C)c1onc(-c2ccc(S(C)(=O)=O)cc2Cl)c1COc1ccc(/C=C/c2cccc(C(=O)O)c2)c(Cl)c1"
property_name = "Activity"
measurement_units = "%"
measurement = 0


I. Cc1cc(OCc2c(-c3ccn(C)c(=O)c3Cl)noc2C(C)C)ccc1-c1ccc2c(C(=O)O)cn(C)c2c1
II. Cc1cc(OCc2c(-c3[nH]c(=O)ccc3Cl)noc2C(C)C)ccc1-c1ccc2c(C(=O)O)cn(C)c2c1
Higher Activity: I or II ? // caller expects the label of the chosen entry
I
(I: 12%, II: 0%)

P. Cc1cc(OCc2c(-c3c(Cl)cn(C)c(=O)c3Cl)noc2C(C)C)ccc1-c1ccc2c(C(=O)O)cn(C)c2c1
Q. COc1ccccc1-c1noc(C(C)C)c1COc1ccc(/C=C/c2cccc(C(=O)O)c2)c(Cl)c1
Could you tell me which of P and Q has the lower Activity reading? API: response body contains the label of the selected item.
P
(P: 9%, Q: 54.3%)

* * *

Protein target, amino acids: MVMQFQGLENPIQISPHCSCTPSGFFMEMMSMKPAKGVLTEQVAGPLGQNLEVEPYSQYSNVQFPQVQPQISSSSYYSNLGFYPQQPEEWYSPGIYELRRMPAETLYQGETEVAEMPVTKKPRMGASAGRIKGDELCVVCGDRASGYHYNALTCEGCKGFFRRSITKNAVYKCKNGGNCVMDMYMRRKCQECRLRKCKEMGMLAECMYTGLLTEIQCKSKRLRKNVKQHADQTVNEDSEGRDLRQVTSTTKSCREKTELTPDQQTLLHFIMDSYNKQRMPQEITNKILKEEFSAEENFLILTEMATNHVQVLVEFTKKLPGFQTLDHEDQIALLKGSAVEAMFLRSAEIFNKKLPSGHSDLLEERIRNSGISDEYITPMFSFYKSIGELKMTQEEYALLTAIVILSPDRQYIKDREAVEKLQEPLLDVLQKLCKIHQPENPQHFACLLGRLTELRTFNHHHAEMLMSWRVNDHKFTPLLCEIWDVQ
pEC50: −log10 of the molar value.
property_name: pEC50

[[record]]
item_smiles = "Cc1cc(OCc2c(-c3c(Cl)c[n+]([O-])cc3Cl)noc2C(C)C)ccc1-c1ccc2c(C(=O)O)cn(C)c2c1"
property_name = "pEC50"
measurement = 6.99

[[record]]
item_smiles = "COc1ccc(Cl)c(-c2noc(C(C)C)c2COc2ccc(-c3ccc4c(C(=O)O)cn(C)c4c3)c(C)c2)n1"
property_name = "pEC50"
measurement = 5.70

[[record]]
item_smiles = "Cc1cc(OCc2c(-c3ccn(C)c(=O)c3Cl)noc2C(C)C)ccc1-c1ccc2c(C(=O)O)cn(C)c2c1"
property_name = "pEC50"
measurement = 5.15

[[record]]
item_smiles = "COc1ccccc1-c1noc(C(C)C)c1COc1ccc(/C=C/c2cccc(C(=O)O)c2)c(Cl)c1"
property_name = "pEC50"
measurement = 5.00

[[record]]
item_smiles = "Cc1cc(OCc2c(-c3c(Cl)ccc(=O)n3C)noc2C(C)C)ccc1-c1ccc2c(C(=O)O)cn(C)c2c1"
property_name = "pEC50"
measurement = 5.40

[[record]]
item_smiles = "CC(C)c1onc(-c2c(Cl)cncc2Cl)c1COc1ccc(/C=C/c2cccc(C(=O)O)c2)c(Cl)c1"
property_name = "pEC50"
measurement = 5.05


A. Cc1cc(OCc2c(-c3c(Cl)cn(C)c(=O)c3Cl)noc2C(C)C)ccc1-c1ccc2c(C(=O)O)cn(C)c2c1
B. Cc1cc(OCc2c(-c3cc[nH]c(=O)c3Cl)noc2C(C)C)ccc1-c1ccc2c(C(=O)O)cn(C)c2c1
C. Cc1cc(OCc2c(-c3c(Cl)cncc3Cl)noc2C(C)C)ccc1-c1ccc2c(C(=O)O)cn(C)c2c1
List by increasing pEC50. Form entry: ranked labels (order as requested).
A, B, C

* * *

Sequence of the target: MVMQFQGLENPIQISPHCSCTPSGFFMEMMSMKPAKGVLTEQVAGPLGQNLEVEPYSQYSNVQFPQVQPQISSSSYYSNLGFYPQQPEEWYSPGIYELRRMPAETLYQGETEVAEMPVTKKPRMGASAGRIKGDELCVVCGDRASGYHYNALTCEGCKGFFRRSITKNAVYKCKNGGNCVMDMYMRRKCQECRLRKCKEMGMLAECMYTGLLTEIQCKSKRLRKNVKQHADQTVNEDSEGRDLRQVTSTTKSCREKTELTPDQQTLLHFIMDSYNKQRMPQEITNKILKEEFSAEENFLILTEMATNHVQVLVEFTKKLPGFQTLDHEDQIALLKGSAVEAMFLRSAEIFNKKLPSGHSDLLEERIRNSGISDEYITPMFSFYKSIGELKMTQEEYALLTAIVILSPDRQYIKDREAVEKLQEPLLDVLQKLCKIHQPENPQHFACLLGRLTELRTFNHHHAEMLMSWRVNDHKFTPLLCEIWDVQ
property_name: IC50 (µM)

Known results for molecules:
[[record]]
item_smiles = "Cc1cc(OCc2c(-c3c(Cl)ccc(=O)n3C)noc2C(C)C)ccc1-c1ccc2c(C(=O)O)cn(C)c2c1"
measurement = 0.235

[[record]]
item_smiles = "CC(C)c1onc(-c2ccc(S(C)(=O)=O)cc2Cl)c1COc1ccc(/C=C/c2cccc(C(=O)O)c2)c(Cl)c1"
measurement = 0.17

[[record]]
item_smiles = "Cc1cc(OCc2c(-c3cc[nH]c(=O)c3Cl)noc2C(C)C)ccc1-c1ccc2c(C(=O)O)cn(C)c2c1"
measurement = 1.1


a. Cc1cc(OCc2c(-c3[nH]c(=O)ccc3Cl)noc2C(C)C)ccc1-c1ccc2c(C(=O)O)cn(C)c2c1
b. COc1ccccc1-c1noc(C(C)C)c1COc1ccc(/C=C/c2cccc(C(=O)O)c2)c(Cl)c1
Which value of IC50 is smaller, the one for a or the one for b ? Answer format: the label of the selected item.
b
